Target: Lipolytic enzyme, G-D-S-L family (Bacteroides thetaiotaomicron)
Sequence (Q8A0C5 whole entry, change not shown): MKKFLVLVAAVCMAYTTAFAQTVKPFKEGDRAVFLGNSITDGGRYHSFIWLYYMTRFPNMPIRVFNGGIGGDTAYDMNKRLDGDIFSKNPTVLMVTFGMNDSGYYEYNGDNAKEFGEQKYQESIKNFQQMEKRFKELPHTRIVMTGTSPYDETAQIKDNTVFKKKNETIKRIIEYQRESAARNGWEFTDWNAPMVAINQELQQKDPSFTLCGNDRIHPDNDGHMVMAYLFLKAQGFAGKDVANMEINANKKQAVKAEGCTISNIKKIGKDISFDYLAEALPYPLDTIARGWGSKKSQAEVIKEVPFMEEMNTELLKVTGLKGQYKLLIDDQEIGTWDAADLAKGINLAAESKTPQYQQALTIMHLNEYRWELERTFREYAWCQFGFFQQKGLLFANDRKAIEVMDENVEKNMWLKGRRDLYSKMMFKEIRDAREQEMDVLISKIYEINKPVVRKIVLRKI
Assay: The drug is tested on Bacteroides thetaiotaomicron strain: VPI-5482 for biotransformation. The drug concentrations were measured before and after a 12-h incubation by liquid-chromatography-coupled mass spectrometry (LC–MS)
Assay type: ADME
Design: dose 2 uM
Settings: 2 µM
REPORTED METRIC: Bacterial Biotransformation

{"COMPOUND": "CC(=O)Nc1ccc(OC(C)=O)cc1 [DIACETAMATE]", "REPORTED METRIC": "Bacterial Biotransformation", "OBSERVED": "Compound metabolized"}
{"COMPOUND": "CCS(=O)(=O)CCn1c([N+](=O)[O-])cnc1C", "REPORTED METRIC": "Bacterial Biotransformation", "OBSERVED": "Compound NOT metabolized"}
{"COMPOUND": "C#C[C@]1(O)CC[C@H]2[C@@H]3CCC4=Cc5oncc5C[C@]4(C)[C@H]3CC[C@@]21C", "REPORTED METRIC": "Bacterial Biotransformation", "OBSERVED": "Compound NOT metabolized"}
{"COMPOUND": "C#C[C@]1(O)CC[C@H]2[C@@H]3CCC4=CC(=O)CC[C@@H]4[C@H]3CC[C@@]21CC", "REPORTED METRIC": "Bacterial Biotransformation", "OBSERVED": "Compound NOT metabolized"}
{"COMPOUND": "C#C[C@]1(OC(C)=O)CC[C@H]2[C@@H]3CCC4=CC(=O)CC[C@@H]4[C@H]3CC[C@@]21C [NORETHINDRONE ACETATE]", "REPORTED METRIC": "Bacterial Biotransformation", "OBSERVED": "Compound NOT metabolized"}
{"COMPOUND": "CC(=O)OCC(=O)[C@@]12N=C(C)O[C@@H]1C[C@H]1[C@@H]3CCC4=CC(=O)C=C[C@]4(C)[C@H]3[C@@H](O)C[C@@]12C", "REPORTED METRIC": "Bacterial Biotransformation", "OBSERVED": "Compound metabolized"}
{"COMPOUND": "COc1ccnc(C[S+]([O-])c2nc3ccc(OC(F)F)cc3[nH]2)c1OC (stereo unspecified)", "REPORTED METRIC": "Bacterial Biotransformation", "OBSERVED": "Compound NOT metabolized"}
{"COMPOUND": "CC(=O)OCC(=O)NCCCOc1cccc(CN2CCCCC2)c1 [ROXATIDINE ACETATE]", "REPORTED METRIC": "Bacterial Biotransformation", "OBSERVED": "Compound metabolized"}
{"COMPOUND": "CC(=O)OCC(=O)[C@@]1(OC(C)=O)[C@@H](C)C[C@H]2[C@@H]3C[C@H](F)C4=CC(=O)C=C[C@]4(C)[C@@]3(F)[C@@H](O)C[C@@]21C [DIFLORASONE DIACETATE]", "REPORTED METRIC": "Bacterial Biotransformation", "OBSERVED": "Compound metabolized"}
{"COMPOUND": "C[C@]12CCC(=O)C=C1[C@@H]1C[C@@H]1[C@H]1[C@@H]3[C@@H]4C[C@@H]4[C@@]4(CCC(=O)O4)[C@@]3(C)CC[C@@H]12", "REPORTED METRIC": "Bacterial Biotransformation", "OBSERVED": "Compound NOT metabolized"}
{"COMPOUND": "COc1ccc([C@@H]2Sc3ccccc3N(CCN(C)C)C(=O)[C@@H]2OC(C)=O)cc1", "REPORTED METRIC": "Bacterial Biotransformation", "OBSERVED": "Compound metabolized"}
{"COMPOUND": "Nc1ccc(/N=N/c2ccccc2)c(N)n1", "REPORTED METRIC": "Bacterial Biotransformation", "OBSERVED": "Compound NOT metabolized"}
{"COMPOUND": "CCN(CC)C(=O)/C(C#N)=C/c1cc(O)c(O)c([N+](=O)[O-])c1", "REPORTED METRIC": "Bacterial Biotransformation", "OBSERVED": "Compound NOT metabolized"}
{"COMPOUND": "CC(=O)Oc1ccc(C(c2ccc(OC(C)=O)cc2)c2ccccn2)cc1", "REPORTED METRIC": "Bacterial Biotransformation", "OBSERVED": "Compound metabolized"}
{"COMPOUND": "C[C@@H]1CC[C@H]2[C@@H](C)C(=O)O[C@@H]3O[C@@]4(C)CC[C@@H]1[C@]32OO4", "REPORTED METRIC": "Bacterial Biotransformation", "OBSERVED": "Compound NOT metabolized"}
{"COMPOUND": "CC(=O)SCC(Cc1ccccc1)C(=O)NCC(=O)OCc1ccccc1 (stereo unspecified)", "REPORTED METRIC": "Bacterial Biotransformation", "OBSERVED": "Compound metabolized"}

Sourced from ChEMBL document CHEMBL5303573
